Test system: HOP-92 NSCLC
Experiment: NCI tumour cell line growth inhibition, 48 h
Record form. Attribute: TGI. Fill in for each entry.

Task: Reported TGI for CCCCCCCCCCCCCCCCNC(=O)OC(C)C : what is it?
Output: 13.7 µM

Task: Which TGI reading was recorded for the compound CN1C(c2ccccc2)CC(=NOCc2ccccc2)CC1c1ccccc1 (stereo not given) ?
Output: 81 µM

Task: Consider the compound COc1ccc(C2CC(c3ccc4ccccc4c3O)=NN2)cc1OC (stereo not given) and give its measured TGI.
Output: > 100 µM

Task: Entry COc1cc(Br)c(CC2NCCc3cc(OC)c(OC)cc32)cc1OC (stereo not given) : reported TGI = ?
Output: > 100 µM

Task: What value of TGI has been recorded for this entry: Cc1cc(O)c(C=NC(=S)C(N)=S)c(=O)o1
Output: > 100 µM

Task: Reported TGI, compound CCSc1ccc2c(c1)N(CCCN1CCN(C)CC1)c1ccccc1S2 : ____
Output: 7.06 µM

Task: Name the reported TGI value associated with the compound CN(N=O)C(=O)N(N)CCCCC(NC(=O)OCc1ccccc1)C(=O)OCc1ccccc1 (stereo not given)
Output: 34.5 µM

Task: What measured TGI goes with Cc1ccc2c(NCCCN(C)C)c3c(C)nn(C)c3nc2c1 ?
Output: 5.99 µM

Task: For CC1CCC(C(C)C2C(O)CC3C4CC=C5CC(O)CCC5(C)C4CCC32C)NC1 (stereo not given) , what is its reported TGI?
Output: 69.8 µM

Task: Which TGI reading was recorded for the compound C[C@]12CCc3nonc3C1CC[C@@H]1C2CC[C@]2(C)C(=O)/C(=N\O)CC12 (stereo not given in full) ?
Output: > 100 µM

Task: Field request: TGI | item: CC(C)(Oc1ccc(Cl)cc1)C(=O)NC1C2CC3CC1CC(NS(C)(=O)=O)(C3)C2 (stereo not given)
Output: 69.1 µM

Task: What measured TGI goes with COc1ccc(NC(=O)C(=O)NO)c(OC)c1 ?
Output: 35.7 µM

Task: What TGI value was documented for this compound, Cc1ccc(NS(=O)(=O)c2ccc(-c3cnc(C4CC4)o3)cc2)cc1C ?
Output: 3.35 µM

Task: // TGI lookup, key: O=C(CSCC(=O)N/N=C/c1cccc(C(F)(F)F)c1)N/N=C/c1cccc(C(F)(F)F)c1
Output: > 100 µM

Task: What value of TGI has been reported for the following compound? CC1(C)C[C@H]2[C@H](O)C(CO)=C3C(=O)[C@@H](O)[C@]3(C)[C@H]2C1
Output: > 100 µM

Task: If you can, please state the reported TGI value of O=NN(CCCl)C(=O)NC1CCC(C(=O)O)CC1 (stereo not given) .
Output: > 100 µM

Task: Return reported TGI; argument: CN(CC(=O)O)c1ncc2c(n1)-c1ccccc1OC2c1ccccc1 (stereo not given)
Output: > 100 µM

Task: Look up TGI for this compound: COC(=O)[C@@H]1CCCN1C(=O)[C@@H]1CCCN1C(=O)[C@H](Cc1ccccc1)NC(=S)Nc1cc(C(F)(F)F)cc(C(F)(F)F)c1
Output: 5.65 µM

Task: Suppose we examine the compound N#Cc1c(-c2ccccc2)n([O-])c2ccccc2[n+]1=O ; what TGI value has been reported?
Output: 45.4 µM

Task: I would be grateful if you could share the reported TGI for CO[C@]12CC(=O)C3(C(C[C@H]4CC5CCC6=CC(=O)CC[C@]6(OC(C)=O)C5C[C@@]43C)C1)C1C[C@H]3[C@@H]4CCC5=CC(=O)CC[C@]5(OC(C)=O)[C@H]4CC[C@]3(C)C12 (stereo not given in full) .
Output: > 100 µM

Source listed as PubChem BioAssay (NCI).
